Origin of measurements: patent US20220110919A1

# IC50 per record follows
biological target: NEU3 (Homo sapiens); construct: MBP (N); made in house; host or cells: E. coli; assay: Inhibition assay, 4MU-NANA cleavage, NEU3; type: biochemical; settings: 4MU-NANA as the substrate; pH 4.5; read-out: IC50 NEU3
Sequence (Q9UQ49 whole entry): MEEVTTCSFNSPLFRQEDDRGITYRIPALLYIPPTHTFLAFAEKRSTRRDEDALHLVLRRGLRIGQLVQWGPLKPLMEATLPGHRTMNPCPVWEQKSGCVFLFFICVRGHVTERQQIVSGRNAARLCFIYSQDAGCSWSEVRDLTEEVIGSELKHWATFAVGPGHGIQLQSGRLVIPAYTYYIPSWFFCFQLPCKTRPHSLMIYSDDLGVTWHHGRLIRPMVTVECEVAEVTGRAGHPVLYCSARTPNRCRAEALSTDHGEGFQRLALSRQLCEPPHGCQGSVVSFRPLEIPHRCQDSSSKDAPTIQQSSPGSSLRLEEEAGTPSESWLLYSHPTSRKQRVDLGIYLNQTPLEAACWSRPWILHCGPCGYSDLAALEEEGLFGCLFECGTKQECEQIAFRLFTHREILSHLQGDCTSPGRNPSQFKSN

Completed entries (count: 4):
compound="CC(=O)NC1C(N)C=C(C(=O)O)OC1C(O)C(O)Cn1cc(-c2ccc(C(=O)O)cc2)nn1 (stereo not shown)" value_type=IC50 result="> 500 µM"
compound=CCCCCC(=O)NC[C@@H](O)[C@@H](O)[C@@H]1OC(C(=O)O)=C[C@H](O)[C@H]1NC(=O)CCCCC value_type=IC50 result="> 500 µM"
compound="CC(=O)NC1C(NC(=O)NCCC(=O)O)C=C(C(=O)O)OC1C(O)C(O)Cn1cc(-c2ccc(C(=O)O)cc2)nn1 (stereo not shown)" value_type=IC50 result="> 500 µM"
compound=CCCCCC(=O)N[C@H]1[C@H]([C@H](O)[C@H](O)CNC(=O)CC)OC(C(=O)O)=C[C@@H]1O value_type=IC50 result="> 500 µM"

State, in one line, measured IC50 of CCCCCC(=O)N[C@H]1[C@H]([C@H](O)[C@H](O)CNC(=O)CCC)OC(C(=O)O)=C[C@@H]1O
> 500 µM

Identify IC50 associated with the compound CCCCCC(=O)N[C@H]1[C@H]([C@H](O)[C@H](O)CNC(C)=O)OC(C(=O)O)=C[C@@H]1O
> 500 µM

Identify measured IC50 associated with CC(=O)N[C@H]1C(C(O)C(O)Cn2cc(CO)nn2)OC(C(=O)O)=C[C@H]1O (stereo partly shown)
80 µM

Could you please provide reported IC50 for CCCCC(=O)N[C@H]1C=C(C(=O)O)O[C@@H]([C@H](O)[C@H](O)CO)[C@@H]1NC(C)=O [25b] ? Thanks!
> 500 µM

Note down IC50 recorded for CC(=O)N[C@H]1[C@H]([C@H](O)[C@H](O)CO)OC(C(=O)O)=C[C@@H]1NC(=O)C1CCC1 [25d]
> 500 µM
